Numbers sourced from ChEMBL document CHEMBL1124197.

species: Rattus norvegicus; assay: Inhibition of pleural reverse passive Arthus reactions (RPAR) in rat (exudate volume); assay type: functional

| compound | ED50 / µmol/kg |
| --- | --- |
| N#CCCN(N)c1nc2ccccc2o1 | 238 |
| C[C@]12CCC(=O)C=C1CC[C@@H]1[C@@H]2[C@@H](O)C[C@@]2(C)[C@H]1CC[C@]2(O)C(=O)CO [HYDROCORTISONE] | 38 |
| N#CCCN(N)c1nc2cc(C(F)(F)F)ccc2o1 | 70 |
| Cc1ccc2oc(N(N)CCC#N)nc2c1 | 148 |
| COc1ccc2oc(N(N)CCC#N)nc2c1 | 155 |

====

species on record: Rattus norvegicus; assay: Effective dose required for 40% inhibition of rat dermal reverse passive Arthus reaction (RPAR); assay type: functional
I would appreciate it if you labelled entries T when ED40 is 200 µM/kg or higher, otherwise F.

| molecule | assigned_label |
| --- | --- |
| COCCN(N)c1nc2cc(C)ccc2o1 | F |
| CC(C#N)CN(N)c1nc2ccccc2o1 (configuration not stated) | T |
| NN(CC[S+]([O-])c1ccccc1)c1nc2ccccc2o1 (configuration not stated) | T |
| Cn1c(N(N)CCC#N)nc2ccccc21 | T |
| Cc1cc(N(N)CCC#N)c2ccccc2n1 | F |
| N#CCCN(N)c1nc2cc3ccccc3cc2o1 | T |
| N#CCCNc1nc2ccccc2o1 | T |

====

Known log10(ED40) of a selection of compounds
organism: Rattus norvegicus; experiment: Effective dose required for 40% inhibition of rat dermal reverse passive Arthus reaction (RPAR); type: functional
quantity: log10(ED40) (log10 of the value in µM/kg)

| compound | value_measured |
| --- | --- |
| COc1cc2nc(N(N)CCC#N)oc2cc1OC | 2.81 |
| N#CCCN(N)c1nc2ccccc2s1 | 2.11 |
| C#CCCN(N)c1nc2ccccc2o1 | 2.54 |
| COCCN(N)c1nc2cc(Cl)ccc2o1 | 2.13 |
| N#CCCN(N)c1ncc(-c2ccccc2)cn1 | 2.08 |
| C/C=N\N(CCC#N)c1nc2ccccc2o1 | 2.80 |
| C[S+]([O-])c1ccc2oc(N(N)CCC#N)nc2c1 (stereo not given) | 2.78 |
| CSCCN(N)c1nc2ccccc2o1 | 2.96 |
| CS(=O)(=O)CCN(N)c1nc2ccccc2o1 | 2.44 |
| Cc1cc2oc(N(N)CCC#N)nc2cc1Cl | 1.56 |
| COC(=O)NN(CCC#N)c1nc2ccccc2o1 | 2.84 |
| [2H]C([2H])(C#N)CN(N)c1nc2ccccc2o1 | 2.41 |
| Cc1ccc2oc(N(N)CCC#N)nc2c1 | 1.92 |
| COCCN(N)c1nc2ccccc2o1 | 2.48 |
| N#CCCN(N)c1nc2cc(C#N)ccc2o1 | 1.82 |
| N#CCCN(N)c1nc(-c2ccccc2)c(-c2ccccc2)o1 | 2.52 |
| CSc1cc(C(C)(C)C)cc2nc(N(N)CCC#N)oc12 | 2.90 |
| CCN(CC)CCN(N)c1nc2ccccc2o1 | 2.79 |
| Cc1cccc2nc(N(N)CCC#N)oc12 | 2.40 |
| C[C@]12CCC(=O)C=C1CC[C@@H]1[C@@H]2[C@@H](O)C[C@@]2(C)[C@H]1CC[C@]2(O)C(=O)CO [HYDROCORTISONE] | 1.52 |
| COC(=O)CCN(N)c1nc2ccccc2o1 | 3.08 |
| Cc1cc(C)c2oc(N(N)CCC#N)nc2c1C | 2.06 |
| CC(=O)NN(CCC#N)c1nc2ccccc2o1 | 2.60 |
| CNN(CCC#N)c1nc2ccccc2o1 | 2.40 |
| NN(CCOc1ccc(F)cc1)c1nc2ccccc2o1 | 2.90 |
| CC(CC#N)N(N)c1nc2ccccc2o1 (stereo not given) | 2.39 |
| N#CCCN(N)c1cnccn1 | 2.88 |
| Cc1cc2nc(N(N)CCC#N)oc2cc1C | 2.62 |
| N#CCCN(N)c1nccs1 | 2.59 |
| CCOCCN(N)c1nc2cc(OC)ccc2o1 | 2.17 |
| N#CCCN(N)C1=NS(=O)(=O)c2ccccc21 | 2.81 |
| NN(CCc1ccccn1)c1nc2ccccc2o1 | 2.41 |
| NC(=O)CCN(N)c1nc2ccccc2o1 | 3.00 |
| N#CCCN(N)c1nc2cc(Cl)ccc2o1 | 2.25 |
| N#CCCN(N)c1nc2ccccc2o1 | 1.92 |
| C=NN(CCC#N)c1nc2ccccc2o1 | 2.93 |
| NN(CCOc1ccccc1)c1nc2ccccc2o1 | 2.66 |
| CCCN(N)c1nc2ccccc2o1 | 2.60 |
| Cc1ccc2oc(N(CCC#N)NC=O)nc2c1 | 2.23 |
| N#CCCN(N)C1Cc2ccccc2C1 | 2.75 |
| CSc1ccc2oc(N(N)CCC#N)nc2c1 | 2.60 |
| Cc1nc(N(N)CCC#N)oc1C | 2.72 |
| CC(C)(C)c1ccc2oc(N(N)CCC#N)nc2c1 | 2.54 |
| N#CCCN(N)c1ccc(-c2ccccc2)nn1 | 2.83 |
| Cc1coc(N(N)CCC#N)n1 | 2.85 |
| COc1ccc2oc(N(CCC#N)NC=O)nc2c1 | 2.30 |
| Cc1cc2oc(N(N)CCC#N)nc2c(C)c1C | 2.14 |
| N#CCCSc1nc2ccccc2o1 | 3.10 |
| NN(CCO)c1nc2ccccc2o1 | 3.10 |
| COCCN(N)c1nc2cc(C#N)ccc2o1 | 2.26 |
| N#CCCN(N)c1nc2c(ccc3ccccc32)o1 | 2.54 |
| N#CCCN(N)c1nc2cccc(Cl)c2o1 | 2.44 |
| N#CCCN(N)C1=Nc2ccccc2C1 | 2.42 |
| CCNN(CCC#N)c1nc2ccccc2o1 | 2.29 |
| Cc1cc(C)c2oc(N(N)CCC#N)nc2c1 | 2.21 |
| Cc1cccc2oc(N(N)CCC#N)nc12 | 2.55 |
| N#CCCN(N)c1nc2cc(C(F)(F)F)ccc2o1 | 1.41 |
| Cc1ccc2nc(N(N)CCC#N)oc2c1 | 2.33 |
| CCc1ccc2oc(N(N)CCC#N)nc2c1 | 2.52 |
| N#CCCN(NC=O)c1nc2ccccc2o1 | 2.15 |

====

organism: Rattus norvegicus; experiment: Effective dose required for 40% inhibition of rat dermal reverse passive Arthus reaction (RPAR); type: functional
quantity: log10 of ED40 (log10 of the value in µM/kg)

| smiles_repr | value_measured |
| --- | --- |
| NN(CCc1ccccc1)c1nc2ccccc2o1 | 2.98 |
| CS(=O)(=O)c1ccc2oc(N(N)CCC#N)nc2c1 | 2.61 |
| NN(CCCO)c1nc2ccccc2o1 | 2.76 |
| COc1ccc2nc(N(N)CCC#N)oc2c1 | 2.59 |
| N#CCCN(N)c1nc(-c2ccccc2)co1 | 2.08 |
| CCN(N)c1nc2ccccc2o1 | 2.40 |
| N#CCCN(N)c1ncco1 | 2.56 |
| Cc1cc(Cl)cc2nc(N(N)CCC#N)oc12 | 2.28 |
| COCCN(N)c1nc2cc(OC)ccc2o1 | 1.63 |
| COc1ccc2oc(N(N)CCC#N)nc2c1 | 1.77 |
| NN(CCN1CCOCC1)c1nc2ccccc2o1 | 2.92 |
| COCCN(N)c1nc2cc(C(F)(F)F)ccc2o1 | 1.67 |
| N#CCCN(NC=O)c1nc2cc(C(F)(F)F)ccc2o1 | 1.94 |
| N#CCCN(N)c1nc2cc(F)ccc2o1 | 2.15 |
